The measurements presented in this section are drawn from patent US10669272B2.

Biological target: human DGKα (Homo sapiens, UniProt P23743)
Construct: TVMV protease cleavage site (C); Hexa-His (C); made in house; host or cells: Sf9 insect cells (baculovirus, Bac-to-Bac)
Sequence (P23743 with tags, fused parts or gaps): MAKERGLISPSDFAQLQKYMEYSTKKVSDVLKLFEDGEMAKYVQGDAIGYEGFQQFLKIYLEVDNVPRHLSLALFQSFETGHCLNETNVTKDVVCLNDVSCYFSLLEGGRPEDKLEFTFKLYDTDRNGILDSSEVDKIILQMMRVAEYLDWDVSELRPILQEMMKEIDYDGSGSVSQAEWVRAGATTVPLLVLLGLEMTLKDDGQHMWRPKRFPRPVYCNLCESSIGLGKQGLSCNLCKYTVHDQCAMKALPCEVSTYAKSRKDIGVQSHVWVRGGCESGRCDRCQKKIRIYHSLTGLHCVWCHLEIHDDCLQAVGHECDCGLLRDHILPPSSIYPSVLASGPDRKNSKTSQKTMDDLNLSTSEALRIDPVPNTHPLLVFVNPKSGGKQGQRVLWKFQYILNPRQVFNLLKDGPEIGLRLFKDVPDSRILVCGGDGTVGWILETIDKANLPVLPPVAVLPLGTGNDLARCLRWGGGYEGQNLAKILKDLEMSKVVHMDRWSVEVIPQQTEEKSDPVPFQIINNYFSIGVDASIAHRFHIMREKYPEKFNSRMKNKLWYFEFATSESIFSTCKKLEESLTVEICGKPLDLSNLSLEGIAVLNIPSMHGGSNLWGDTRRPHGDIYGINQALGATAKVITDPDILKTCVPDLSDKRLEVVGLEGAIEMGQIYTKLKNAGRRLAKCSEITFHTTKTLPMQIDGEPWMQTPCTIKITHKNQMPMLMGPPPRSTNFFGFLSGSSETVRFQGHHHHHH
Assay: DGKα LIPGLO assay (extruded liposome substrate), in vitro DGK inhibition
Format: biochemical
Conditions: liposome (LIPGLO) assay; read-out: DGKa LIPGLO IC50
pIC50: −log10 of the molar value.
readoutType: pIC50

| compound | pIC50 |
| --- | --- |
| COc1ccc2c(n1)c(N1C[C@@H](C)N(C(c3ccc(F)cc3)c3ccc(F)cc3)C[C@@H]1C)cc(=O)n2C [Example 241] | 5.08 |
| C[C@@H]1CN(c2cc(=O)n(C)c3ccc(C#N)nc23)[C@@H](C)CN1C(c1ccccc1)c1cccc(F)c1 (stereo partly shown) [Example 296] | 6.20 |
| C[C@@H]1CN(c2cc(=O)n(C)c3ccc(C#N)nc23)[C@@H](C)CN1C(c1ccc(OC(F)(F)F)cc1)c1cccc(F)n1 (single isomer, unassigned) [Example 367] | 5.89 |
| CC[C@@H]1CN(c2cc(=O)n(C)c3ccc(C#N)nc23)[C@@H](C)CN1C(CC1CCCCC1)c1ccc(OC(F)(F)F)cc1 (stereo partly shown) [Example 1196] | 5.85 |
| CC1C(C)N(C(c2ccc(F)cc2)c2ccc(F)cc2)CCN1c1cc(=O)n(C)c2ccc(C#N)nc12 (single isomer, unassigned) [Example 124] | 5.00 |

(P) Cn1c(=O)cc(N2CCN(C(c3ccc(F)cc3)c3ccc(F)cc3)C(CO)C2)c2nc(C#N)ccc21 (single isomer, unassigned) [Example 2]
(Q) C[C@@H]1CN(c2cc(=O)n(C)c3ccc(C#N)nc23)[C@@H](C)CN1Cc1cn(C)nn1 [Example 1435]
Which numeric pIC50 is bigger, that of P or that of Q ? Selection: enter the item's label.
P
(P: 5.59, Q: 3.80)

====

Molecular target: human DGKα (Homo sapiens, UniProt P23743)
Construct: TVMV protease cleavage site (C); Hexa-His (C); made in house; host or cells: Sf9 insect cells (baculovirus, Bac-to-Bac)
Test: DGKα LIPGLO assay (extruded liposome substrate), in vitro DGK inhibition
Format: biochemical
Details: liposome (LIPGLO) assay; read-out: DGKa LIPGLO IC50
pIC50: −log10 of the molar value.
readoutType: pIC50

| molecule | subjectOfTest | pIC50 |
| --- | --- | --- |
| COC[C@@H]1CN(c2cc(=O)n(C)c3ccc(C#N)nc23)[C@@H](C)CN1C(C)c1ccc(OC(F)(F)F)cc1 (single isomer, unassigned) [Example 1162] | human DGKα (Homo sapiens, UniProt P23743) | 6.32 |
| COC[C@@H]1CN(c2cc(=O)n(C)c3ccc(C#N)nc23)[C@@H](C)CN1C(C)c1ccc(OC(F)(F)F)cc1 (single isomer, unassigned) [Example 1163] | human DGKα (Homo sapiens, UniProt P23743) | 5.00 |
| COC(=O)NC[C@@H]1CN(c2cc(=O)n(C)c3ccc(C#N)nc23)[C@@H](C)CN1C(c1ccc(F)cc1)c1ccc(F)cc1 [Example 1166] | human DGKα (Homo sapiens, UniProt P23743) | 5.74 |
| Cn1c(=O)cc(N2CCN(C(c3ccc(F)cc3)c3ccc(F)cc3)CC2C2CC2)c2nc(C#N)ccc21 (single isomer, unassigned) [Example 23] | human DGKα (Homo sapiens, UniProt P23743) | 3.62 |
| CC(c1ccc2c(c1)OC(F)(F)O2)N1C[C@H](C)N(c2cc(=O)n(C)c3ccc(C#N)nc23)C[C@H]1C (single isomer, unassigned) [Example 655] | human DGKα (Homo sapiens, UniProt P23743) | 5.38 |
| CC[C@@H]1CN(c2cc(=O)n(C)c3ccc(C#N)nc23)[C@@H](C)CN1C(C)c1ccc(OC(F)(F)F)cc1F (single isomer, unassigned) [Example 1095] | human DGKα (Homo sapiens, UniProt P23743) | 7.57 |
| C[C@H]1CN(C(c2ccc(F)cc2)c2ccc(C(F)(F)F)cn2)[C@H](CO)CN1c1cc(=O)n(C)c2ccc(C#N)nc12 (single isomer, unassigned) [Example 1388] | human DGKα (Homo sapiens, UniProt P23743) | 5.96 |
| CC[C@H]1CN(C(c2ccc(F)cc2)c2cocn2)[C@H](CC)CN1c1cc(=O)n(C)c2ccc(C#N)nc12 (single isomer, unassigned) [Example 1069] | human DGKα (Homo sapiens, UniProt P23743) | 7.22 |
| CC[C@@H]1CN(c2cc(=O)n(C)c3ccc(C#N)nc23)[C@@H](CC)CN1Cc1ccc(OC(F)(F)F)cc1 [Example 1363] | human DGKα (Homo sapiens, UniProt P23743) | 7.35 |
| Cc1ccc(C(c2ccc(F)cc2)N2C[C@H](C)N(c3c(F)c(=O)n(C)c4ccc(C#N)nc34)C[C@H]2C)cc1 (stereo partly drawn) [Example 332] | human DGKα (Homo sapiens, UniProt P23743) | 5.51 |

(I) CCOc1cccc(CN2C[C@H](C)N(c3cc(=O)n(C)c4ccc(C#N)nc34)C[C@H]2C)c1 [Example 599]
(II) Cc1oncc1CN1C[C@H](C)N(c2cc(=O)n(C)c3ccc(C#N)nc23)C[C@H]1C [Example 1431]
Between the entries labelled I and II , which has a larger pIC50 value on record? Response format: the label of the selected entry.
I
(I: 5.51, II: 4.23)
